Origin of values: patent US20100113460A1

Target: Human CYP2B6 (Homo sapiens, UniProt P20813)
Assay: Inhibition of human CYP2B6, 7-ethoxy-4-trifluoromethyl-coumarin fluorescence assay in microsomes
Details: substrate 7-ethoxy-4-trifluoromethyl-coumarin 6 μM, 40 min at 37° C.; read-out: CYP2B6 inhibitor activity IC50
pIC50: −log10 of the molar value.
Decide using pIC50: a value greater than or equal to 6 is 1.0, a smaller one is 0.0.

>>> print(df.to_string())
                molecule  category_label
0  c1nc2c(o1)CCCCCCCCCC2             0.0

Prompt line: Test whether the molecule CC/C=C\CCn1ccnc1 [Compound ID 23, (Z)-1-(hex-3-enyl)-1H-imidazole] records pIC50 of 6 or higher.
Response line: 0.0

Prompt line: Test whether the molecule C=CCCCCCc1cnccn1 records pIC50 of 6 or higher.
Response line: 1.0

Prompt line: Test whether the molecule CC(C)=CCC/C(C)=C\Cn1ccnc1 records pIC50 of 6 or higher.
Response line: 1.0

---

Target: CYP2A13 (Homo sapiens, UniProt Q16696)
Sequence (Q16696 whole entry): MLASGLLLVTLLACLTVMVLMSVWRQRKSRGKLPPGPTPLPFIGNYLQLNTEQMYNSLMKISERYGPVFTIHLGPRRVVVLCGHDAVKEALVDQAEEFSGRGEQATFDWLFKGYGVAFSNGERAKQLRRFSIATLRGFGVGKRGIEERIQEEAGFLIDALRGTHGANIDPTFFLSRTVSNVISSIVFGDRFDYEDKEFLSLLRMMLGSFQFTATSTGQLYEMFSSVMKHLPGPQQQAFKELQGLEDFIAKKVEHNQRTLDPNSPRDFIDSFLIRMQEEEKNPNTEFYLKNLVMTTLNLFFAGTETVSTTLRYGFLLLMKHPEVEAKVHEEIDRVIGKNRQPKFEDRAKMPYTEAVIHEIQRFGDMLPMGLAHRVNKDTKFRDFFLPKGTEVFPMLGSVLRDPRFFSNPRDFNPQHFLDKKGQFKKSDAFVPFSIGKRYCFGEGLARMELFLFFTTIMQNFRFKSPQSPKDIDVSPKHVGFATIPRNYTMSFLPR
Experiment: CYP2A13 inhibition, coumarin to 7-hydroxy-coumarin (Umbelliferone) fluorescence assay in microsomes
pIC50 for assorted compounds
Kindly note that pIC50 refers to -log10 of the concentration in mol/L and answer with the value alone.

Worked cases, answers included:
In [3]: df
Out[3]:
                                   compound  reported
0                            N#CCCCCn1ccnc1      5.02
1  c1nc2c(o1)CCCCCC2 [Compound ID 60, 4,5,6,7,8,9-hexahydrocycloocta[d]oxazole]      4.94

Now look at this one.
Prompt line: # return recorded pIC50 for entry O=C1CCCCCCCCCCN1
Response line: 4.81

---

Target: Human CYP2B6 (Homo sapiens, UniProt P20813)
Sequence (P20813 1-491): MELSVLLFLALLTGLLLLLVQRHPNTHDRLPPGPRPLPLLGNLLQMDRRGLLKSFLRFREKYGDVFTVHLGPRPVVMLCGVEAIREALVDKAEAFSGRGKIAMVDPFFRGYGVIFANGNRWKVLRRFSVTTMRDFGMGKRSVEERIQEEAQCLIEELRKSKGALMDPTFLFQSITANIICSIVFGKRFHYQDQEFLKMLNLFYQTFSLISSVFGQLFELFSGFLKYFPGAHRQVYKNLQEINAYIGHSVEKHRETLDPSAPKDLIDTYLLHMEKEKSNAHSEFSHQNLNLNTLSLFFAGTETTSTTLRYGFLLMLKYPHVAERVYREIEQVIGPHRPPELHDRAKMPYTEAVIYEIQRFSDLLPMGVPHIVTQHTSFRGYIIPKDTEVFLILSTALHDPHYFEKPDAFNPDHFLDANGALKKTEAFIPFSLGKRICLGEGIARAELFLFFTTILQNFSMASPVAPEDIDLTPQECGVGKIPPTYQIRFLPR
Assay: Inhibition of human CYP2B6, 7-ethoxy-4-trifluoromethyl-coumarin fluorescence assay in microsomes
Conditions: substrate 7-ethoxy-4-trifluoromethyl-coumarin 6 μM, 40 min at 37° C.; read-out: CYP2B6 inhibitor activity IC50
Measurement Name: pIC50
Kindly note that pIC50 refers to -log10 of the concentration in mol/L and answer with the value alone.

Worked cases, answers included:
In [3]: df
Out[3]:
                                   compound  measurement_name  reported
0  C=CCCCCn1ccnc1 [Compound ID 41, 1-(hex-5-enyl)-1H-imidazole]             pIC50      5.72
1  CCCCCCn1ccnc1 [Compound ID 16, 1-hexyl-1H-imidazole]             pIC50      6.22

Now look at this one.
Prompt line: # return recorded pIC50 for entry c1ncc2c(n1)CCCCCCCCCC2 [Compound ID 1]
Response line: 5.57
